Molecular target: egg albumin (Gallus gallus, UniProt P01012)
Sequence (P01012 2-386): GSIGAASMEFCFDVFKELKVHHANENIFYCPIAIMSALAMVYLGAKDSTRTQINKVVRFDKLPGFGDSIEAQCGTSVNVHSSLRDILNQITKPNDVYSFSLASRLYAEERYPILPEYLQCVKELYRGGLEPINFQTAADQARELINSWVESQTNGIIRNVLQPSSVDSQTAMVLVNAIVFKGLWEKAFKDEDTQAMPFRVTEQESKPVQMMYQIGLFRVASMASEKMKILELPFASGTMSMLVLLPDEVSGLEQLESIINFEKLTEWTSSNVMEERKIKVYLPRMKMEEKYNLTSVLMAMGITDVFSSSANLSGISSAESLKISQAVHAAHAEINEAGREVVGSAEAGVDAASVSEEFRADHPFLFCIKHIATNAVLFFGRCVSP
Experiment: Inhibition of protein denaturation method
Type: biochemical
Conditions: read-out: Inhibition of protein denaturation (%)
Hi there, I'd appreciate the recorded inhibition at 300 µg/mL for every entry that follows.
Quick reminder: number only, in %, skip the unit.

Reading of inhibition at 300 µg/mL for NC1=NC(/C=C/c2ccccc2)n2nc(C(=O)Nc3ccc(S(N)(=O)=O)cc3)nc2N1 (stereo not shown) [Compound 6] with egg albumin (Gallus gallus, UniProt P01012): 72.1

Reading of inhibition at 300 µg/mL for NC1=NC(c2ccccc2O)n2nc(C(=O)Nc3ccc(S(N)(=O)=O)cc3)nc2N1 (stereo not shown) [Compound 11] with egg albumin (Gallus gallus, UniProt P01012): 98.2

Reading of inhibition at 300 µg/mL for CN(C)c1ccc(C2N=C(N)Nc3nc(C(=O)Nc4ccc(S(N)(=O)=O)cc4)nn32)cc1 (stereo not shown) [Compound 12] with egg albumin (Gallus gallus, UniProt P01012): 74.2

Reading of inhibition at 300 µg/mL for COc1ccc(C2N=C(N)Nc3nc(C(=O)Nc4ccc(S(N)(=O)=O)cc4)nn32)cc1 (stereo not shown) [Compound 9] with egg albumin (Gallus gallus, UniProt P01012): 69.5

Reading of inhibition at 300 µg/mL for Cc1ccccc1C1N=C(N)Nc2nc(C(=O)Nc3ccc(S(N)(=O)=O)cc3)nn21 (stereo not shown) [Compound 5] with egg albumin (Gallus gallus, UniProt P01012): 78.2

Reading of inhibition at 300 µg/mL for NC1=NC(c2ccccc2Cl)n2nc(C(=O)Nc3ccc(S(N)(=O)=O)cc3)nc2N1 (stereo not shown) [Compound 8] with egg albumin (Gallus gallus, UniProt P01012): 77.9

Reading of inhibition at 300 µg/mL for NC1=NC(C2N=C(N)Nc3nc(C(=O)Nc4ccc(S(N)(=O)=O)cc4)nn32)n2nc(C(=O)Nc3ccc(S(N)(=O)=O)cc3)nc2N1 (stereo not shown) [Compound 7] with egg albumin (Gallus gallus, UniProt P01012): 73.2

Reading of inhibition at 300 µg/mL for NC1=NC(c2cccc3ccccc23)n2nc(C(=O)Nc3ccc(S(N)(=O)=O)cc3)nc2N1 (stereo not shown) [Compound 10] with egg albumin (Gallus gallus, UniProt P01012): 73.4

Reading of inhibition at 300 µg/mL for NC1=NC(c2cccc(O)c2)n2nc(C(=O)Nc3ccc(S(N)(=O)=O)cc3)nc2N1 (stereo not shown) [Compound 13] with egg albumin (Gallus gallus, UniProt P01012): 73.6

Reading of inhibition at 300 µg/mL for NC1=NC(c2ccco2)n2nc(C(=O)Nc3ccc(S(N)(=O)=O)cc3)nc2N1 (stereo not shown) [Compound 4] with egg albumin (Gallus gallus, UniProt P01012): 91.3

----------
Biological target: COX-1 (Ovis aries)
Sequence (P05979 25-600): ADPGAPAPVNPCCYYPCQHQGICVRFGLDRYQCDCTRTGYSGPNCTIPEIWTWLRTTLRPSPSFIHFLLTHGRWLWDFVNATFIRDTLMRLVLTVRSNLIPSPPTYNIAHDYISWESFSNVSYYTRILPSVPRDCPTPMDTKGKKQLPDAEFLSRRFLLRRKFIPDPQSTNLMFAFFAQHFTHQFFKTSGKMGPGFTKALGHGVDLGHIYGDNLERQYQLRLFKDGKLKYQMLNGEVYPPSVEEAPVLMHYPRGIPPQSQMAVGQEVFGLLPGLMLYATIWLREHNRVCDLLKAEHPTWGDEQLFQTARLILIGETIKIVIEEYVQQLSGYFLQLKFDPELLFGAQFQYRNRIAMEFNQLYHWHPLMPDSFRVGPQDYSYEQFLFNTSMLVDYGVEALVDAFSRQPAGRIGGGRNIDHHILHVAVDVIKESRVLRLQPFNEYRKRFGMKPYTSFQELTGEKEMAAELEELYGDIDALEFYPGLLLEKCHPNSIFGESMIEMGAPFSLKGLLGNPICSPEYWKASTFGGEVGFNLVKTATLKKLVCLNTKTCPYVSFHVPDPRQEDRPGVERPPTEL
Assay: In vitro COX inhibitory assay
Type: biochemical
Conditions: read-out: Inhibition of COX-1 (%)
Assign label 1 whenever inhibition at 150 µg/mL does not fall below 80%; assign label 0 whenever it does.

Is inhibition at 150 µg/mL at least 80%? Consider NC1=NC(c2ccco2)n2nc(C(=O)Nc3ccc(S(N)(=O)=O)cc3)nc2N1 (centres unmarked) [Compound 4] label 1

Is inhibition at 150 µg/mL at least 80%? Consider NC1=NC(c2ccccc2Cl)n2nc(C(=O)Nc3ccc(S(N)(=O)=O)cc3)nc2N1 (centres unmarked) [Compound 8] label 0

Is inhibition at 150 µg/mL at least 80%? Consider CN(C)c1ccc(C2N=C(N)Nc3nc(C(=O)Nc4ccc(S(N)(=O)=O)cc4)nn32)cc1 (centres unmarked) [Compound 12] label 0

Is inhibition at 150 µg/mL at least 80%? Consider Cc1ccccc1C1N=C(N)Nc2nc(C(=O)Nc3ccc(S(N)(=O)=O)cc3)nn21 (centres unmarked) [Compound 5] label 0
